Test system: SR leukemia
Assay: NCI-60 one-dose screen, 48 h (100 = growth as untreated, 0 = no growth, -100 = all killed)
Settings: 10 µM unless noted
About 83,000 compounds went through this panel and 20% of them were active in at least one assay; those are over-represented in the sample as a whole.
We use 20% as the dividing line for growth: on or above the line is Criterion met, below is Criterion not met.

Examples from the recorded data:
smi: N#CSc1c[nH]c2cccc(/C=C/C(=O)/C=C(O)/C=C/c3cccc4[nH]cc(SC#N)c34)c12
qualitative.label: Criterion not met
--
smi: O=C(Cc1ccc(NC(=O)c2cccc(Cl)c2)cc1)NCc1ccccc1
qualitative.label: Criterion not met

Enquiry: Hello, I need to know if `N#C/C(=C\C=C\c1ccc(-c2cc(Cl)ccc2Cl)o1)c1nc2ccccc2s1` has measured growth not below 20%. Thanks!
Return: Criterion met

Enquiry: Hello, I need to know if `O=C(Nc1cc(Cl)ccc1O)c1cccc(Nc2ccnc(C(F)(F)F)c2)c1` has measured growth not below 20%. Thanks!
Return: Criterion met

Enquiry: Hello, I need to know if `COc1ccc(Nc2ncccc2/C=C/C(=O)c2cc(OC)c(OC)c(OC)c2)cc1` has measured growth not below 20%. Thanks!
Return: Criterion not met

Enquiry: Hello, I need to know if `COC(=O)c1ccc(NC(=O)Nc2ccc(C(=O)OC)cc2)cc1` has measured growth not below 20%. Thanks!
Return: Criterion met

Enquiry: Hello, I need to know if `CNC(=O)c1cc(Oc2ccc3c(c2)sc2nc(-c4ccc(OC)cc4)cn23)ccn1` has measured growth not below 20%. Thanks!
Return: Criterion met

Enquiry: Hello, I need to know if `COc1cc(OC)c2sc(-c3ccc(-n4cncc4-c4cc(OC)c(OC)c(OC)c4)cc3)nc2c1` has measured growth not below 20%. Thanks!
Return: Criterion not met

Enquiry: Hello, I need to know if `CC1(C)N=C(N)N=C(N)N1c1ccc(CCCCc2ccccc2)c(Cl)c1` has measured growth not below 20%. Thanks!
Return: Criterion not met

Enquiry: Hello, I need to know if `COC(=O)c1cc(Br)ccc1O` has measured growth not below 20%. Thanks!
Return: Criterion met

====

System: NCI-H522 lung
Assay: NCI-60 one-dose screen, 48 h
Conditions: 10 µM unless noted
Method: Growth inhibition of the NCI-H522 human Non-Small Cell Lung tumor cell line is measured as a screen for anti-cancer activity. Cells are grown in 96 well plates and exposed to the test compound for 48 hours. Compounds are tested at a single concentration, which is 10^-5 M for most compounds. The reported endpoint is percent growth (GI% or GIPRCNT), where numbers from 0 - 100% represent growth inhibition, and numbers from -100% - 0 represent cell death. […]
This is part of a sample that, as a whole, favours compounds with a hit. Of some 83,000 tested, about 20% had one in any assay. The source made the active and inactive calls. The calls were made as follows: active = growth percent below 10; inactive = the rest.
In this exercise, the only acceptable responses are y (active), n (inactive)

Enquiry: Name the outcome recorded for `Cc1cc(Nc2ccc(C(=O)N3CCCC3)cc2)nc(NCCCNc2ccnc3cc(Cl)ccc23)n1` in the assay.
Return: n

Enquiry: Name the outcome recorded for `COc1ccc(N2CCN(C(=O)c3sc4nc(C)c(Br)c(C)c4c3N)CC2)cc1` in the assay.
Return: n

Enquiry: Name the outcome recorded for CC1C=CC(OC(=O)C(C)(O)CCC(O)(C(=O)OC2CC(O)C(C(C)C)CC2(C)O)C(C)C)(C(C)C)CC1 (stereo not given) in the assay.
Return: y

Enquiry: Name the outcome recorded for `O=C(O)COc1ccc(Cl)c(Cl)c1` in the assay.
Return: n

Enquiry: Name the outcome recorded for `CN(CCCNC(=O)Cc1ccc2ccc3cccc4ccc1c2c34)CCCNc1cc(-c2ccc3ccccc3c2)nc2ccccc12` in the assay.
Return: y

Origin of measurements: PubChem BioAssay (NCI)
